Biological target: T1, alpha-2 macroglobulin (in human plasma) (human, UniProt P01023 24-1474)
T1 construct: Not purified: the endogenous protein of the plasma
T1 sequence (looked up): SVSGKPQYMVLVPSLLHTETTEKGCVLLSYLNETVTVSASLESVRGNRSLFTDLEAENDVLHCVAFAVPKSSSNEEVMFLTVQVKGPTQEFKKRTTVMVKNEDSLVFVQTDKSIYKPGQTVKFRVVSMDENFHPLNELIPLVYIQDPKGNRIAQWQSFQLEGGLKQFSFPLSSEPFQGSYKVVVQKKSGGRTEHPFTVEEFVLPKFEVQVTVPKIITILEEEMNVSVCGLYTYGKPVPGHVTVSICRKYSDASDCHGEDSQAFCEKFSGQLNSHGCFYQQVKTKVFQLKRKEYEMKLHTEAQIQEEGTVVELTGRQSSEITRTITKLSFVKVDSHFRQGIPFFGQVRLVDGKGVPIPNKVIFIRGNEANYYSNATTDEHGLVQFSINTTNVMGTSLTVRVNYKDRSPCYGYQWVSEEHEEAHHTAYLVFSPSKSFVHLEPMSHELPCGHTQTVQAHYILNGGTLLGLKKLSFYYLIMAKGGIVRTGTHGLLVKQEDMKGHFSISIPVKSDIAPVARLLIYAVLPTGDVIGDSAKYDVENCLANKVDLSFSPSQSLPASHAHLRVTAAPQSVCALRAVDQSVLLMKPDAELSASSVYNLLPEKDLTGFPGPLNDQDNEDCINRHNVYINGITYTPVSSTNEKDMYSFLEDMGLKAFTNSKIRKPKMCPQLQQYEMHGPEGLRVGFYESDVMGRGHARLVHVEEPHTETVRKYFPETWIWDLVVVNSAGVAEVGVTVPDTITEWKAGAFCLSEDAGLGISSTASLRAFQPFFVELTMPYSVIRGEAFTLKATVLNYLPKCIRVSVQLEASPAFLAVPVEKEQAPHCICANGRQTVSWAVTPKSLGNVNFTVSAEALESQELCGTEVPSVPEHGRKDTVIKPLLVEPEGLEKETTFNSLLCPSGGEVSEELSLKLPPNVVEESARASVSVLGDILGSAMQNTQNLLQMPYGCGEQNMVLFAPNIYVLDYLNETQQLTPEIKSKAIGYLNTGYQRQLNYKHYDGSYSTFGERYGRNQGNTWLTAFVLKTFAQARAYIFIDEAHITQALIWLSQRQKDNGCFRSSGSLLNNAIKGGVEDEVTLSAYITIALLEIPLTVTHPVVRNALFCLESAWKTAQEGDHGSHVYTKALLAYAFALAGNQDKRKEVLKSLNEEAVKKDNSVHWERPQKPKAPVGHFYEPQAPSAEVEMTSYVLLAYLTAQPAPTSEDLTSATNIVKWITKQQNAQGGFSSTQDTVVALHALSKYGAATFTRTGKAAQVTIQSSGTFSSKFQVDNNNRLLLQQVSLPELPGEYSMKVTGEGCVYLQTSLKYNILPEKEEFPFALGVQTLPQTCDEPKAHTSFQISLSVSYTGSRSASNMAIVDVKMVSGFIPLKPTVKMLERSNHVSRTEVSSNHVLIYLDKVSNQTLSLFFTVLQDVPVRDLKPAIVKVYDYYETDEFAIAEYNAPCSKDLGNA
Experiment: Ac-RQAR-AMC activity of protease after 5 min in human citrated plasma, with and without M84R ecotin
Readings of % Unbound by a2M for the listed binders
Enter your answer as a number in %; do not include the unit.

A selection of reference data follows.
Binder	% Unbound by a2M / %
modified MT-SP1 CB481 (I41T/Y146D/G151L/Q175D/K224L) protease domain (enzyme) VVGGTDADEGEWPWQVSLHALGQGHTCGASLISPNWLVSAAHCYIDDRGFRYSDPTQWTAFLGLHDQSQRSAPGVQERRLKRIISHPFFNDFTFDYDIALLELEKPAEYSSMVRPICLPDASHVFPAGKAIWVTGWGHTQDGGTLALILQKGEIRVINQTTCENLLPQDITPRMMCVGFLSGGVDSCQGDSGGPLSSVEADGRIFQAGVVSWGDGCAQRNLPGVYTRLPLFRDWIKENTGV	72
modified MT-SP1 CB422 (I41T/Y146E/Q175D/K224N) protease domain (enzyme) VVGGTDADEGEWPWQVSLHALGQGHTCGASLISPNWLVSAAHCYIDDRGFRYSDPTQWTAFLGLHDQSQRSAPGVQERRLKRIISHPFFNDFTFDYDIALLELEKPAEYSSMVRPICLPDASHVFPAGKAIWVTGWGHTQEGGTGALILQKGEIRVINQTTCENLLPQDITPRMMCVGFLSGGVDSCQGDSGGPLSSVEADGRIFQAGVVSWGDGCAQRNNPGVYTRLPLFRDWIKENTGV	83

Task item: Fill in the blank: the reported % Unbound by a2M of modified MT-SP1 CB480 (I41T/Y146D/G151L/Q175D/K224F) protease domain (enzyme) VVGGTDADEGEWPWQVSLHALGQGHTCGASLISPNWLVSAAHCYIDDRGFRYSDPTQWTAFLGLHDQSQRSAPGVQERRLKRIISHPFFNDFTFDYDIALLELEKPAEYSSMVRPICLPDASHVFPAGKAIWVTGWGHTQDGGTLALILQKGEIRVINQTTCENLLPQDITPRMMCVGFLSGGVDSCQGDSGGPLSSVEADGRIFQAGVVSWGDGCAQRNFPGVYTRLPLFRDWIKENTGV is ____.
Reply: 88
